- System: PDC KRAS tumor spheroids with HUVEC/MSC, viability;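 note: spheroids exposed to compounds for seven days before readout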
- ASSAY NAME: Anticancer human tumor 349418-098-R-PDC patient-derived lung adenocarcinoma cell line growth inhibition [KRAS2]
- CONDITION PARAMETERS: second compound 0.1 µM; first compound 10 µM; hits give low values
- Description: Multicellular complex tumor spheroid response to RAS pathway inhibitors in combination with a targeted agents in patient-derived cell lines with oncogenic KRAS variants from multiple cancer types A high-throughput screen of multi-cell type tumor spheroids was designed to identify active combinations of targeted small molecules and KRAS pathway inhibitors. […] Compounds. […] If the clinical Cmax for an agent had not been determined, the highest concentration tested was 10 microM. […]
Output Yes for records whose viability, T/C is lower than 20%, No for records at or above 20%.

COMPOUND	MEASURED TARGET	QUALITATIVE LABEL
CC(C)NCC(C(=O)N1CCN(c2ncnc3c2C(C)CC3O)CC1)c1ccc(Cl)cc1 (stereo unspecified) + CNCc1ccccc1-c1csc(C(C)Nc2nc(C)nc3cc(OC)c(OC)cc23)c1	PDC KRAS tumor spheroids with HUVEC/MSC, viability	Yes
CC(C)NCC(C(=O)N1CCN(c2ncnc3c2C(C)CC3O)CC1)c1ccc(Cl)cc1 (stereo unspecified) + COc1cc2nc(C)nc(NC(C)c3cc(N)cc(C(F)(F)F)c3)c2cc1OC1CCOC1	PDC KRAS tumor spheroids with HUVEC/MSC, viability	Yes
O=C(c1cc(Cc2n[nH]c(=O)c3ccccc23)ccc1F)N1CCN(C(=O)C2CC2)CC1 + CNCc1ccccc1-c1csc(C(C)Nc2nc(C)nc3cc(OC)c(OC)cc23)c1	PDC KRAS tumor spheroids with HUVEC/MSC, viability	No

Q) State whether 20% exceeds viability, T/C recorded for CCNC(=O)CC1N=C(c2ccc(Cl)cc2)c2cc(OC)ccc2-n2c(C)nnc21 (stereo unspecified) + CC1OCC2(CCN(c3cnc(Sc4ccnc(N)c4Cl)c(N)n3)CC2)C1N .
A) Yes

Q) State whether 20% exceeds viability, T/C recorded for CCNC(=O)CC1N=C(c2ccc(Cl)cc2)c2cc(OC)ccc2-n2c(C)nnc21 (stereo unspecified) + C=CC(=O)N1CCN(c2nc(OCC3CCCN3C)nc3c2CCN(c2cccc4cccc(C)c24)C3)CC1CC#N .
A) Yes

Q) State whether 20% exceeds viability, T/C recorded for COc1cc2nccc(Oc3ccc(NC(=O)C4(C(=O)Nc5ccc(F)cc5)CC4)cc3)c2cc1OC + C=CC(=O)N1CCN(c2nc(OCC3CCCN3C)nc3c2CCN(c2cccc4cccc(C)c24)C3)CC1CC#N .
A) Yes

Q) State whether 20% exceeds viability, T/C recorded for Cn1nccc1Nc1nccc(-c2cc3c(s2)C(C)(C)N(CCN2CCOCC2)C3=O)n1 + COc1cc2nc(C)nc(NC(C)c3cc(N)cc(C(F)(F)F)c3)c2cc1OC1CCOC1 .
A) Yes

Q) State whether 20% exceeds viability, T/C recorded for CCNC(=O)CC1N=C(c2ccc(Cl)cc2)c2cc(OC)ccc2-n2c(C)nnc21 (stereo unspecified) + C=CC(=O)N1CCN(c2nc(=O)n(-c3c(C)ccnc3C(C)C)c3nc(-c4c(O)cccc4F)c(F)cc23)C(C)C1 .
A) Yes

Ref: PubChem BioAssay AID1963866
